// provenance: ChEMBL document CHEMBL3867482

Listed here are compounds together with their documented IC50.
target: Cytochrome P450 3A4 (Homo sapiens, UniProt P08684); assay: Inhibition of CYP3A4 in human liver microsomes preincubated for 30 mins after 30 secs by LC/MS/MS analysis; assay type: ADME
Sequence (P08684 whole entry): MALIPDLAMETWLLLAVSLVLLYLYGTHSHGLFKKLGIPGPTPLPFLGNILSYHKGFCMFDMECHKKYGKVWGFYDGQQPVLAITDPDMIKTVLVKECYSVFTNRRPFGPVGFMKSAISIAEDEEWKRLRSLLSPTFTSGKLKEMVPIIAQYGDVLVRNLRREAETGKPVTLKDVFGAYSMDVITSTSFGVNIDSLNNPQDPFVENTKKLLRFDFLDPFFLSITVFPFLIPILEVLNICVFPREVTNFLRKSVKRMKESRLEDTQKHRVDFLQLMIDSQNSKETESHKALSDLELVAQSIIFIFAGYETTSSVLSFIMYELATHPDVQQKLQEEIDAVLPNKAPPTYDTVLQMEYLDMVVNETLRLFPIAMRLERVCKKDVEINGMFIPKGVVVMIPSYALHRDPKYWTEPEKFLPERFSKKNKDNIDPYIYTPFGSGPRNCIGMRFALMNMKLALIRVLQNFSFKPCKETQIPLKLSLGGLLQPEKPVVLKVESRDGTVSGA
Respond numerically; units are nM and should not be typed.

O=S(=O)(CC[C@@H]1OCC[C@@]2(S(=O)(=O)c3ccc(Cl)cc3)c3c(F)ccc(F)c3OC[C@@H]12)C[C@H]1CCCN1 ... 1000

Next up:
Data request: GET /values?readout=IC50&system=Cytochrome P450 3A4 (Homo sapiens, UniProt P08684)&item= CCNCCS(=O)(=O)CC[C@@H]1OCC[C@@]2(S(=O)(=O)c3ccc(Cl)cc3)c3c(F)ccc(F)c3OC[C@@H]12
Data returned: 1400

====

test: AUC (0 to 6 hrs) in mouse at 10 mg/kg, po by LC/MS/MS analysis; format: ADME, organism-based; parameters: time < 6 hr, dose 10 mg/kg, route oral; conditions: in vivo
Property: AUC(0-t) at 6 h (µM·h)
# number only, unit µM·h dropped from output

Data request: Which AUC(0-t) at 6 h is reported for this compound? CCNCCS(=O)(=O)CC[C@@H]1OCC[C@@]2(S(=O)(=O)c3ccc(Cl)cc3)c3c(F)ccc(F)c3OC[C@@H]12
Data returned: 1.35

Data request: Could you do the same for O=S(=O)(CC[C@@H]1OCC[C@@]2(S(=O)(=O)c3ccc(Cl)cc3)c3c(F)ccc(F)c3OC[C@@H]12)C[C@@H]1CCCN1 , please?
Data returned: 0.674

Data request: Moving on to the next compound: O=S(=O)(CC[C@@H]1OCC[C@@]2(S(=O)(=O)c3ccc(Cl)cc3)c3c(F)ccc(F)c3OC[C@@H]12)[C@@H]1CCNC1
Data returned: 1.17

Data request: Entry O=S(=O)(CC[C@@H]1OCC[C@@]2(S(=O)(=O)c3ccc(Cl)cc3)c3c(F)ccc(F)c3OC[C@@H]12)[C@H]1CCNC1 please
Data returned: 1.02

Data request: How about this compound: O=S(=O)(CC[C@@H]1OCC[C@@]2(S(=O)(=O)c3ccc(Cl)cc3)c3c(F)ccc(F)c3OC[C@@H]12)C[C@H]1CCCN1
Data returned: 2.52

Data request: Thanks! And CNCCS(=O)(=O)CC[C@@H]1OCC[C@@]2(S(=O)(=O)c3ccc(Cl)cc3)c3c(F)ccc(F)c3OC[C@@H]12 ?
Data returned: 0.532

Data request: Follow-up item: CNC(C)(C)CCS(=O)(=O)CC[C@@H]1OCC[C@@]2(S(=O)(=O)c3ccc(Cl)cc3)c3c(F)ccc(F)c3OC[C@@H]12
Data returned: 0.477

====

assay: Inhibition of gamma-secretase in HEK293 cell membranes expressing human APP Swedish/London double mutant assessed as reduction in amyloid beta 40 formation after 1 hr by electrochemiluminescence based immunoassay
Property: IC50 (nM)
Report the value in nM with no unit label.

Data request: Please give the measured IC50 for this molecule: O=S(=O)(CC[C@@H]1OCC[C@@]2(S(=O)(=O)c3ccc(Cl)cc3)c3c(F)ccc(F)c3OC[C@@H]12)CCN1CC[C@H](O)C1
Data returned: 0.8

Data request: And O=S(=O)(CC[C@@H]1OCC[C@@]2(S(=O)(=O)c3ccc(Cl)cc3)c3c(F)ccc(F)c3OC[C@@H]12)CCN1CCNCC1 ?
Data returned: 0.8

Data request: Please do the same for NCCS(=O)(=O)CC[C@@H]1OCC[C@@]2(S(=O)(=O)c3ccc(Cl)cc3)c3c(F)ccc(F)c3OC[C@@H]12 as well.
Data returned: 0.8
